Catalogue of clearance readings, one per entry.
PROTOCOL NOTES: Pharmacokinetics in Sprague-Dawley rats, 2-in-1 dosing
Assay type: in vivo
MEASUREMENT CONDITIONS: Sprague-Dawley, rat, plasma, iv, 1 mg/kg, intravenous 1 mg/kg, single dose (Table 3); read-out: CL (plasma clearance) (converted)
READOUT LABEL: clearance (mL/min/kg)

>>> observed("[2H]c1cc(C)c(NC(=O)c2cnc(Nc3cc(N4CCN(CCO)CC4)nc(C)n3)s2)c(Cl)c1 [Compound III]")
18.6
>>> observed("Cc1nc(Nc2ncc(C(=O)Nc3c(C)cccc3Cl)s2)cc(N2CC[C@H](O)C2)n1 [Compound X]")
6.75
>>> observed("Cc1nc(Nc2ncc(C(=O)Nc3c(C)cccc3Cl)s2)cc(N2CCN(CCO)CC2)n1 [Dasatinib, reference compound]")
16.5
>>> observed("Cc1nc(Nc2ncc(C(=O)Nc3c(C)cccc3Cl)s2)cc(N2CC[C@@H](O)C2)n1 [Compound XI]")
6.77
